Each recorded value in this set is attributed to ChEMBL document CHEMBL5357058.

Parameter: IC50. Scope: all listed entries.
target: Transient receptor potential cation channel subfamily A member 1 (Homo sapiens); assay: Inhibition of human TRPA1 overexpressed in HEK293 cells assessed as reduction in AITC-induced calcium mobilization preincubated for 5 mins followed by AITC addition by FLIPR assay
Sequence (O75762 whole entry): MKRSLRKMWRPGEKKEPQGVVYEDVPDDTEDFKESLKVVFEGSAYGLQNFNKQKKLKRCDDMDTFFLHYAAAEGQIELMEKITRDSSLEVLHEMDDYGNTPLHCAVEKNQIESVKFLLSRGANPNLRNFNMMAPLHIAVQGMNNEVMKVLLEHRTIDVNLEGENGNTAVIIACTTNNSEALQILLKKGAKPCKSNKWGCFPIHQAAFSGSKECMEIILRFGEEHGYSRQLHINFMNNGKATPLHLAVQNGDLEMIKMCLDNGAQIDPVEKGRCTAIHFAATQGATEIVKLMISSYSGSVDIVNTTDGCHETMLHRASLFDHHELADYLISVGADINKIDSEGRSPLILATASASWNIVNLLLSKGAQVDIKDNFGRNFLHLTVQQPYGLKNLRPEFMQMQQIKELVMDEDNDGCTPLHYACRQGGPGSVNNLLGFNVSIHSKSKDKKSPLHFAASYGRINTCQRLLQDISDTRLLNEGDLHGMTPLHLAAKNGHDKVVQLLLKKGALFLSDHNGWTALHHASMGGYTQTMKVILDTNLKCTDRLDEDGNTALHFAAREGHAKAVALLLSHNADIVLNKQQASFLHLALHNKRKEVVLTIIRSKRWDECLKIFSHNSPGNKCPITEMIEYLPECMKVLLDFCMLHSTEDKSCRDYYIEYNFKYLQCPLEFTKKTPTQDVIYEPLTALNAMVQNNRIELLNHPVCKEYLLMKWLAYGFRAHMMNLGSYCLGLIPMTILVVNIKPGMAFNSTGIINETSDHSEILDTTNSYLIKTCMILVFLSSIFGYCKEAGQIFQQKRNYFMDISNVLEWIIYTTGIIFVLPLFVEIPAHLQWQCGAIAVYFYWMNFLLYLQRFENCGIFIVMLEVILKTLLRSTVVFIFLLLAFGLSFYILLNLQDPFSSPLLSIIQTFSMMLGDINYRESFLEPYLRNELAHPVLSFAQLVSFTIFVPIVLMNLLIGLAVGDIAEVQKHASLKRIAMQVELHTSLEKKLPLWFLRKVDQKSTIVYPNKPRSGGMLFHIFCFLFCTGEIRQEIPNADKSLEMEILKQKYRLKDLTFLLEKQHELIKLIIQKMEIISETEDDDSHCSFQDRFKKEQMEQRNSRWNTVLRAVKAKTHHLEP

>  <MOLECULE>
COC(=O)[C@H](C)[C@H]1CC[C@@](C)(CCC2=C(C)C(OC)CCC2(C)C)OO1 (mixture of isomers)

>  <TARGET_SYSTEM>
Transient receptor potential cation channel subfamily A member 1 (Homo sapiens)

>  <LT_GT_EQ>
>

>  <IC50 (µM)>
30

$$$$
>  <MOLECULE>
COC(=O)[C@H](C)[C@@H]1CC[C@@](C)(CCC2=C(C)C(=O)CCC2(C)C)OO1 [METHYL DIACARNOATE A]

>  <TARGET_SYSTEM>
Transient receptor potential cation channel subfamily A member 1 (Homo sapiens)

>  <LT_GT_EQ>
>

>  <IC50 (µM)>
30

$$$$
>  <MOLECULE>
COC(=O)[C@H](C)[C@H]1CC[C@@](C)(CCC2=C(C)CCCC2(C)C)OO1 [NUAPAPUIN A METHYL ESTER]

>  <TARGET_SYSTEM>
Transient receptor potential cation channel subfamily A member 1 (Homo sapiens)

>  <LT_GT_EQ>
=

>  <IC50 (µM)>
14.1

$$$$
>  <MOLECULE>
COC(=O)[C@H](C)[C@H]1CC[C@@](C)(CCC2=C(C)C(=O)CCC2(C)C)OO1 [DIACARPEROXIDE A]

>  <TARGET_SYSTEM>
Transient receptor potential cation channel subfamily A member 1 (Homo sapiens)

>  <LT_GT_EQ>
=

>  <IC50 (µM)>
22.1

$$$$
>  <MOLECULE>
CC1=C(CC/C(C)=C/CC[C@@]2(C)CC[C@@H]([C@H](C)C(=O)O)OO2)C(C)(C)CCC1=O

>  <TARGET_SYSTEM>
Transient receptor potential cation channel subfamily A member 1 (Homo sapiens)

>  <LT_GT_EQ>
=

>  <IC50 (µM)>
15.3

$$$$
>  <MOLECULE>
CC(=O)CCCC(C)(C)C(=O)CC/C(C)=C/CC[C@]1(C)CC[C@H]([C@@H](C)C(=O)O)OO1 [(+)-MUQUBILONE B]

>  <TARGET_SYSTEM>
Transient receptor potential cation channel subfamily A member 1 (Homo sapiens)

>  <LT_GT_EQ>
>

>  <IC50 (µM)>
30

$$$$
